system: Human alphaherpesvirus 2; test: Relative potency to that of YAGAVVNDL against Herpes Simplex Virus type 2 ribonucleotide reductase
Starred links: 1 amine or outer side, 2 acyl side, 3 side chain; linkers in the order of their positions; H or OH if unused. Non-standard residues stand in square brackets, D forms with d. Residues, ends and D or L forms follow the SMILES beside them. *: point of attachment. X2 = O=C([C@H](Cc1ccc(O)cc1)N(c1ccc(-c2ccccc2)cc1)[*:1])[*:2]; Dibenzylacetyl = O=C(C(Cc1ccccc1)Cc1ccccc1)*; NBnTyr = O=C(O)[C@H](Cc1ccc(O)cc1)NCc1ccccc1; tBuAla = CC(C)(C)C[C@H](N)C(=O)O; Pyrrolidide = C1CCN(*)C1; NHBn = c1ccc(CN*)cc1; NMeEt = CCN(C)*
hey, just use y if measured Relative potency is less than 10, otherwise n

# Compound, Assigned label
rows = [
    ("CC(C)[C@H](NC(=O)[C@H](Cc1ccc(O)cc1)NCc1ccccc1)C(=O)N[C@H](C(=O)N[C@@H](CC(=O)N(C)C)C(=O)N[C@@H](CC(=O)O)C(=O)N[C@@H](CC(C)(C)C)C(=O)O)C(C)C (H-[NBnTyr]VVD(NMe2)D[tBuAla]-OH)", "n"),
    ("CCN(C)C(=O)C[C@H](NC(=O)[C@@H](NC(=O)[C@@H](NC(=O)[C@@H](N)Cc1ccc(O)cc1)C(C)C)C(C)C)C(=O)N[C@@H](CC(=O)O)C(=O)N[C@@H](CC(C)C)C(=O)O (H-YVVD(NMeEt)DL-OH)", "n"),
    ("CC(C)C[C@H](NC(=O)[C@H](CC(=O)O)NC(=O)[C@H](CC(N)=O)NC(=O)[C@@H](NC(=O)[C@@H](NC(=O)C(C)(C)C)C(C)C)C(C)C)C(=O)O", "y"),
    ("CC(C)C[C@H](NC(=O)[C@H](CC(=O)O)NC(=O)[C@H](CC(N)=O)NC(=O)[C@@H](NC(=O)[C@@H](NC(=O)[C@H](Cc1ccc(O)cc1)Nc1ccc(-c2ccccc2)cc1)C(C)C)C(C)C)C(=O)O (H-[X2]VVNDL-OH)", "y"),
    ("CC(C)C[C@H](NC(=O)[C@H](CC(=O)O)NC(=O)[C@H](CC(=O)NCc1ccccc1)NC(=O)[C@@H](NC(=O)[C@@H](NC(=O)[C@@H](N)Cc1ccc(O)cc1)C(C)C)C(C)C)C(=O)O (H-YVVD(NHBn)DL-OH)", "y"),
]

## Task # strict comparison: is reported Relative potency < 10? input = CNC(=O)C[C@H](NC(=O)[C@@H](NC(=O)[C@@H](NC(=O)[C@@H](N)Cc1ccc(O)cc1)C(C)C)C(C)C)C(=O)N[C@@H](CC(=O)O)C(=O)N[C@@H](CC(C)C)C(=O)O (H-YVVD(NHMe)DL-OH)
## Result n

## Task # strict comparison: is reported Relative potency < 10? input = CC(C)C[C@H](NC(=O)[C@H](CC(=O)O)NC(=O)[C@H](CC(N)=O)NC(=O)[C@@H](NC(=O)[C@@H](NC(=O)[C@@](C)(N)Cc1ccc(O)cc1)C(C)C)C(C)C)C(=O)O (stereo in doubt; form 1)
## Result y

## Task # strict comparison: is reported Relative potency < 10? input = CC(C)[C@H](NC(=O)C(Cc1ccccc1)Cc1ccccc1)C(=O)N[C@H](C(=O)N[C@@H](CC(=O)N(C)C)C(=O)N[C@@H](CC(=O)O)C(=O)N[C@@H](CC(C)(C)C)C(=O)O)C(C)C (Dibenzylacetyl-VVD(NMe2)D[tBuAla]-OH)
## Result n

## Task # strict comparison: is reported Relative potency < 10? input = CC(C)C[C@H](NC(=O)[C@H](CC(=O)O)NC(=O)[C@H](CC(=O)N1CCCC1)NC(=O)[C@@H](NC(=O)[C@@H](NC(=O)[C@@H](N)CC(=O)O)C(C)C)C(C)C)C(=O)O (H-DVVD(Pyrrolidide)DL-OH)
## Result n

###

test system: Human alphaherpesvirus 2; test: Relative potency to that of YAGAVVNDL against Herpes Simplex Virus type 2 ribonucleotide reductase
Residues, ends and D or L forms follow the SMILES beside them. *: point of attachment. NBn2 = c1ccc(CN(Cc2ccccc2)*)cc1
Readout type: Relative potency
Respond numerically, and do not add a unit to the figure.

## Task # return Relative potency for CC(C)C[C@H](NC(=O)[C@H](CC(=O)O)NC(=O)[C@H](CC(=O)N(Cc1ccccc1)Cc1ccccc1)NC(=O)[C@@H](NC(=O)[C@@H](NC(=O)[C@@H](N)Cc1ccc(O)cc1)C(C)C)C(C)C)C(=O)O (H-YVVD(NBn2)DL-OH) , test system: Human alphaherpesvirus 2
## Result 13

###

tested on: Human alphaherpesvirus 2; experiment: Relative potency to that of YAGAVVNDL against Herpes Simplex Virus type 2 ribonucleotide reductase
Non-standard residues stand in square brackets, D forms with d. Residues, ends and D or L forms follow the SMILES beside them. *: point of attachment. NBnTyr = O=C(O)[C@H](Cc1ccc(O)cc1)NCc1ccccc1; Morpholide = C1CN(*)CCO1; Pyrrolidide = C1CCN(*)C1
Readout type: Relative potency
Respond numerically, and do not add a unit to the figure.

# Molecule, Relative potency
rows = [
    ("CC(C)C[C@H](NC(=O)[C@H](CC(=O)O)NC(=O)[C@H](CC(N)=O)NC(=O)[C@@H](NC(=O)[C@@H](NC(=O)CCc1ccccc1)C(C)C)C(C)C)C(=O)O", 1.5),
    ("CC(C)C[C@H](NC(=O)[C@H](CC(=O)O)NC(=O)[C@H](CC(=O)N1CCCC1)NC(=O)[C@@H](NC(=O)[C@@H](NC(=O)[C@@H](N)Cc1ccc(O)cc1)C(C)C)C(C)C)C(=O)O (H-YVVD(Pyrrolidide)DL-OH)", 32),
    ("CC(C)C[C@H](NC(=O)[C@H](CC(=O)O)NC(=O)[C@H](CC(N)=O)NC(=O)[C@@H](NC(=O)[C@@H](NC(=O)C(c1ccccc1)c1ccccc1)C(C)C)C(C)C)C(=O)O", 0.27),
    ("CC(C)C[C@H](NC(=O)[C@H](CC(=O)O)NC(=O)[C@H](CC(N)=O)NC(=O)[C@@H](NC(=O)[C@@H](NC(=O)C(Cc1ccccc1)Cc1ccc(O)cc1)C(C)C)C(C)C)C(=O)O (stereo in doubt; form 1)", 21),
    ("CC(C)C[C@H](NC(=O)[C@H](CC(=O)O)NC(=O)[C@H](CC(N)=O)NC(=O)[C@@H](NC(=O)[C@@H](NC(=O)N(c1ccccc1)c1ccccc1)C(C)C)C(C)C)C(=O)O", 0.14),
    ("COC(=O)C[C@H](NC(=O)[C@@H](NC(=O)[C@@H](NC(=O)[C@@H](N)Cc1ccccc1)C(C)C)C(C)C)C(=O)N[C@@H](CC(=O)O)C(=O)N[C@@H](CC(C)C)C(=O)O (H-FVVD(OMe)DL-OH)", 14),
    ("CC(C)C[C@H](NC(=O)[C@H](CC(=O)O)NC(=O)[C@H](CC(N)=O)NC(=O)[C@@H](NC(=O)[C@@H](NC(=O)[C@H](Cc1ccc(O)cc1)NCc1ccccc1)C(C)C)C(C)C)C(=O)O (H-[NBnTyr]VVNDL-OH)", 5),
    ("CC(C)C[C@H](NC(=O)[C@H](CC(=O)O)NC(=O)[C@H](CC(N)=O)NC(=O)[C@@H](NC(=O)[C@@H](NC(=O)C(Cc1ccccc1)Cc1ccccc1)C(C)C)C(C)C)C(=O)O", 38),
]

## Task In one line, give reported Relative potency of the entry CC(C)C[C@H](NC(=O)[C@H](CC(=O)O)NC(=O)[C@H](CC(=O)N1CCOCC1)NC(=O)[C@@H](NC(=O)[C@@H](NC(=O)[C@@H](N)Cc1ccc(O)cc1)C(C)C)C(C)C)C(=O)O (H-YVVD(Morpholide)DL-OH) .
## Result 36
